Molecular target: 3H-LTD4 specific receptor (guinea pig lung membranes) (Cavia porcellus)
Sequence (Q2NNR5 1-340): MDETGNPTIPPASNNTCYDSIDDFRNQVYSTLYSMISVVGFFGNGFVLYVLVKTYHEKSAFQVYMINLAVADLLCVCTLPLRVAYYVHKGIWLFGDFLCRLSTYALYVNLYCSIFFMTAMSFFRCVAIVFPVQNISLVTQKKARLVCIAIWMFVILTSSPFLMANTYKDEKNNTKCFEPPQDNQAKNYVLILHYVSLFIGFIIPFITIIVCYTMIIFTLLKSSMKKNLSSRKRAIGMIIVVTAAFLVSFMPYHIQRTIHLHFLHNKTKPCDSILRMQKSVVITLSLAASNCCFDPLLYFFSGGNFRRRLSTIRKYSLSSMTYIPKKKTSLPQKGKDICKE
pIC50: −log10 of the molar value.
measured-quantity: pIC50

# molecule, measured-quantity, val
measured = [
    ("CCCCCCCCCCCCC/C=C\\C(SCCC(=O)O)[C@]1(O)CC[C@H](C(=O)O)CC1 (relative stereo) [Example 10H]", "pIC50", 5.06),
    ("CCCCCCCCCCCCC/C=C\\C(SCCC(=O)NCC(=O)O)[C@]1(O)CC[C@H](C(=O)O)CC1 (relative stereo) [Example 10L]", "pIC50", 5.10),
    ("CCCCCCCCCCCCC/C=C\\C(SCCCC(=O)O)[C@]1(O)CC[C@H](C(=O)O)CC1 (relative stereo) [Example 10J]", "pIC50", 5.15),
]
